tested on: Wistar type male rat; assay: Activity to resist growth of ulcer (ethanol hydrochloric acid induced gastric injury); format: in vivo; details: 30mg/kg orally, 1 hour before oral ethanol hydrochloric acid, ulcer index 1 hour later, read-out: Ratio of inhibiting formation of ulcer (%)
Classify as follows. Reported inhibition in vivo at 30 mg/kg greater than or equal to 80%: True. Reported inhibition in vivo at 30 mg/kg below: False.

INSERT INTO results (compound, measured_on, classification) VALUES
  ('CCCCCCCC(=O)CC(=O)C=Cc1ccc(O)c(O)c1 [Example 7]', 'Wistar type male rat', 'True'),
  ('CCCCCCCC(=O)CC(=O)CCc1ccc(O)c(O)c1 [Example 8]', 'Wistar type male rat', 'True'),
  ('CCCCCCCCCC(=O)CC(=O)CCc1ccc(O)c(O)c1 [Example 2]', 'Wistar type male rat', 'True'),
  ('CCCCCC(=O)CC(=O)CCc1ccc(O)c(O)c1 [Example 10, 1-(3,4-dihydroxyphenyl)-3,5-decane dione]', 'Wistar type male rat', 'True'),
  ('CCCCCCCCCC(=O)CC(=O)C=Cc1ccc(O)c(O)c1 [Example 1]', 'Wistar type male rat', 'True'),
  ('CCCC(=O)CC(=O)C=Cc1ccc(O)c(O)c1 [Example 11]', 'Wistar type male rat', 'False');
